Measured IC50 accompanies every entry in the list below.
# target.or.test.system: Cyclin-dependent kinase 7 (Homo sapiens, UniProt P50613)
# Sequence (P50613 whole entry): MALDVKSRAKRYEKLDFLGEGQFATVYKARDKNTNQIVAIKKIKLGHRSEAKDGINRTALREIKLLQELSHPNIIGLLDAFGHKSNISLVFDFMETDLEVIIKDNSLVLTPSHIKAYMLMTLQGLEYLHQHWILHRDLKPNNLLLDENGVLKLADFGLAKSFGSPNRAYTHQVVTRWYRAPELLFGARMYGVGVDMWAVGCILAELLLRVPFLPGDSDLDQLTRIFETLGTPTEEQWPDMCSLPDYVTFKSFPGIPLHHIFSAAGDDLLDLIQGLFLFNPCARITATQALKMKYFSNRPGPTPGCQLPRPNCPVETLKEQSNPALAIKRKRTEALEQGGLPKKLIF
Kindly answer with a numeric value in nM, unit omitted.

compound	assay.result
Cc1n[nH]c2ccc(-c3cncc(N[C@@H](CO)c4cccc(F)c4)n3)cc12	496

// switching to the query compound
// recorded IC50 for Cc1n[nH]c2ccc(-c3cncc(NC4CCCC(O)C4)n3)cc12 (stereo not given) : 322

---

# target.or.test.system: CDK9/cyclin T1 (Homo sapiens) (UniProt O60563+P50750)
# experiment: Inhibition of CDK9/cyclin T1 (unknown origin) at 10 uM incubated for 2 hrs in presence of ATP by FRET based LANCE assay relative to control
# Type: protein-complex assay
metric.name: inhibition (%)
Kindly answer with a numeric value in %, unit omitted.

compound	unit.abbreviation	inhibition
OCC(Nc1cncc(-c2ccc3nccnc3c2)n1)c1ccccc1 (stereo not given)	%	2.63
Cc1nc2c(F)cc(-c3cncc(NC(CO)c4ccccc4)n3)cc2n1C(C)C (stereo not given)	%	13.8
COc1cc(F)ccc1-c1cncc(NC(CO)c2ccccc2)n1 (stereo not given)	%	12.4
O=C1Cc2cc(-c3cncc(NC(CO)c4ccccc4)n3)ccc2N1 (stereo not given)	%	31.4

// switching to the query compound
// recorded inhibition for O=c1[nH]c2ccc(-c3cncc(NC(CO)c4ccccc4)n3)cc2[nH]1 (stereo not given) : 0.61

---

# experiment: Observed AUC infinity in ICR mouse at 2 mg/kg, iv measured up to 24 hrs
# Format: ADME, organism-based
# Design: route intravenous, dose 2 mg/kg, time <=24
# experimental.conditions: in vivo
metric.name: AUC(0-inf)

// recorded AUC(0-inf) for "Cc1n[nH]c2ccc(-c3cc(N[C@@H](CO)c4ccccc4)cnc3Cl)cc12" : 558 ng·h/mL

---

# experiment: MRT in ICR mouse at 20 mg/kg, po measured up to 24 hrs
# Type: ADME, organism-based
# experimental.conditions: in vivo
metric.name: MRT (h)
Kindly answer with a numeric value in h, unit omitted.

// recorded MRT for "Cc1n[nH]c2ccc(-c3cc(N[C@@H](CO)c4ccccc4)cnc3Cl)cc12" : 5.99

---

# Test system: Raji
# experiment: Antiproliferative activity against human Raji cells assessed as reduction in cell proliferation measured after 3 to 7 days by MTS assay
# Assay type: functional, cell-based
metric.name: IC50 (µM)
Kindly answer with a numeric value in µM, unit omitted.

mol	unit.abbreviation	assay.result
COC[C@H](C)N[C@H]1CC[C@H](Nc2cc(-c3cccc(NCC4(C#N)CCOCC4)n3)c(Cl)cn2)CC1	µM	0.011

// switching to the query compound
// recorded IC50 for "Cc1n[nH]c2ccc(-c3cc(N[C@@H](CO)c4ccccc4)cnc3Cl)cc12" : 0.037

---

# target.or.test.system: Proto-oncogene tyrosine-protein kinase Src (Homo sapiens, UniProt P12931)
# Sequence (P12931 2-536 limits assumed): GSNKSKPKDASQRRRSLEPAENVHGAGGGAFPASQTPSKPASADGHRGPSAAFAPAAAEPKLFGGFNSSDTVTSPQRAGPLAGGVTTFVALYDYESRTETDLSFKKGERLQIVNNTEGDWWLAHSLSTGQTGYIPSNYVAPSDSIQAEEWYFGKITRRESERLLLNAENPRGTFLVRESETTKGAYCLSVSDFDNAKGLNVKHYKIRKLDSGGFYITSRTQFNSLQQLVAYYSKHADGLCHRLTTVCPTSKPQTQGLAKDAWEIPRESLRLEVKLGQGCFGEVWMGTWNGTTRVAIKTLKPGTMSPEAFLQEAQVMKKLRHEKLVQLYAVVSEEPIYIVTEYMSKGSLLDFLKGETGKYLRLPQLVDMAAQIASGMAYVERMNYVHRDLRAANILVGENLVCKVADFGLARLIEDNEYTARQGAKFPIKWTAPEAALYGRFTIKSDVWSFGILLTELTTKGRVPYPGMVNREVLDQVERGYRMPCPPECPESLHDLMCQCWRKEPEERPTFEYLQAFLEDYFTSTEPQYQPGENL
pIC50: −log10 of the molar value.
metric.name: pIC50

// recorded pIC50 for "Cc1n[nH]c2ccc(-c3cc(N[C@@H](CO)c4ccccc4)cnc3Cl)cc12" : < 6.00

---

# experiment: AUClast in ICR mouse at 2 mg/kg, iv measured up to 24 hrs
# Type: ADME, organism-based
# Design: route intravenous, dose 2 mg/kg, time <=24
# experimental.conditions: in vivo
metric.name: AUC(0-t) at 24 h (ng·h/mL)
Kindly answer with a numeric value in ng·h/mL, unit omitted.

// recorded AUC(0-t) at 24 h for "Cc1n[nH]c2ccc(-c3cc(N[C@@H](CO)c4ccccc4)cnc3Cl)cc12" : 553
